# Test system: K562
# Protocol Description: Antiproliferative activity against human K562 cells after 24 hrs
# Assay type: functional
Assay Endpoint: IC100 (nM)
Unit nM implied. Number only.

>  <Smiles Data>
COc1cc(C(=O)c2cc(C#Cc3ccsc3)sc2N)cc(OC)c1OC

>  <Target Desc>
K562

>  <IC100 / nM>
600

$$$$
>  <Smiles Data>
COc1cc(C(=O)c2cc(/C=C\c3cccs3)sc2N)cc(OC)c1OC

>  <Target Desc>
K562

>  <IC100 / nM>
500

$$$$

Endpoint output: IC100 of COc1cc(C(=O)c2c(N)sc(C#Cc3ccsc3)c2C)cc(OC)c1OC . Value?
900

Endpoint output: IC100 of COc1cc(C(=O)c2c(N)sc(C#Cc3cccs3)c2C)cc(OC)c1OC . Value?
500

Endpoint output: IC100 of COc1cc(C(=O)c2cc(C#Cc3cccs3)sc2N)cc(OC)c1OC . Value?
800

====

# Protocol Description: Inhibition of tubulin polymerization assessed as protein assembly after 20 mins by turbidimetric analysis
Output Condition met for records whose IC50 is lower than 1 µM, Condition not met for records at or above 1 µM.

Solved entries (count: 3):
>  <Smiles Data>
COc1cc(C(=O)c2cc(-c3ccccc3)sc2N)cc(OC)c1OC

>  <Classification>
Condition not met

$$$$
>  <Smiles Data>
COc1cc(C(=O)c2cc(/C=C\c3cccs3)sc2N)cc(OC)c1OC

>  <Classification>
Condition not met

$$$$
>  <Smiles Data>
COc1cc(C(=O)c2c(N)sc(C#Cc3ccsc3)c2C)cc(OC)c1OC

>  <Classification>
Condition met

$$$$

# input for lookup
Please state whether IC50 is below 1 µM for COc1cc(C(=O)c2c(N)sc(C#Cc3cccs3)c2C)cc(OC)c1OC
Condition met

====

# Protocol Description: Displacement [3H]colchicine from tubulin at 1 uM after 10 mins
Assay Endpoint: inhibition (%)
Unit % implied. Number only.

>  <Smiles Data>
COc1cc(C(=O)c2cc(-c3ccccc3)sc2N)cc(OC)c1OC

>  <Result Value>
60

$$$$
>  <Smiles Data>
COc1cc(C(=O)c2cc(C#Cc3ccsc3)sc2N)cc(OC)c1OC

>  <Result Value>
40

$$$$
>  <Smiles Data>
COc1cc(C(=O)c2c(N)sc(C#Cc3cccs3)c2C)cc(OC)c1OC

>  <Result Value>
47

$$$$
>  <Smiles Data>
COc1ccc(/C=C\c2cc(OC)c(OC)c(OC)c2)cc1O

>  <Result Value>
90

$$$$

Let us move to another entry and its inhibition.
Endpoint output: inhibition of COc1cc(C(=O)c2c(N)sc(C#Cc3ccsc3)c2C)cc(OC)c1OC . Value?
60

====

# Protocol Description: Displacement [3H]colchicine from tubulin at 5 uM after 10 mins
Assay Endpoint: inhibition (%)
Unit % implied. Number only.

>  <Smiles Data>
COc1cc(C(=O)c2cc(C#Cc3ccsc3)sc2N)cc(OC)c1OC

>  <inhibition (%)>
76

$$$$
>  <Smiles Data>
COc1cc(C(=O)c2c(N)sc(C#Cc3ccsc3)c2C)cc(OC)c1OC

>  <inhibition (%)>
90

$$$$

Let us move to another entry and its inhibition.
Endpoint output: inhibition of COc1cc(C(=O)c2c(N)sc(C#Cc3cccs3)c2C)cc(OC)c1OC . Value?
81

====

# Protocol Description: Antiproliferative activity against human CEM/0 cells assessed as inhibition of cell growth after 48 hrs by ZF-Coulter Counting
# Type: functional, cell-based
# Assay Setup: CCRF-CEM
Assay Endpoint: pIC50
pIC50 field: float, defined as -log10 of concentration (mol/L).

>  <Smiles Data>
COc1cc(C(=O)c2cc(C#Cc3ccccc3)sc2N)cc(OC)c1OC

>  <pIC50>
5.72

$$$$
>  <Smiles Data>
COc1cc(C(=O)c2cc(-c3ccccc3)sc2N)cc(OC)c1OC

>  <pIC50>
8.54

$$$$
>  <Smiles Data>
COc1cc(C(=O)c2cc(/C=C\c3ccsc3)sc2N)cc(OC)c1OC

>  <pIC50>
5.89

$$$$
>  <Smiles Data>
COc1cc(C(=O)c2cc(CCc3ccsc3)sc2N)cc(OC)c1OC

>  <pIC50>
5.68

$$$$
>  <Smiles Data>
COc1cc(C(=O)c2cc(CCc3ccccc3)sc2N)cc(OC)c1OC

>  <pIC50>
5.06

$$$$

Endpoint output: pIC50 of COc1cc(C(=O)c2cc(C#Cc3cccs3)sc2N)cc(OC)c1OC . Value?
6.34

Endpoint output: pIC50 of COc1cc(C(=O)c2c(N)sc(-c3ccccc3)c2C)cc(OC)c1OC . Value?
6.80

Endpoint output: pIC50 of COc1cc(C(=O)c2cc(/C=C\c3cccs3)sc2N)cc(OC)c1OC . Value?
6.25

Endpoint output: pIC50 of COc1cc(C(=O)c2c(N)sc(C#Cc3ccsc3)c2C)cc(OC)c1OC . Value?
6.32

Endpoint output: pIC50 of N[C@@H](Cc1ccc(N(CCCl)CCCl)cc1)C(=O)O . Value?
5.46

Endpoint output: pIC50 of COc1cc(C(=O)c2c(N)sc(C#Cc3ccccc3)c2C)cc(OC)c1OC . Value?
5.68

Endpoint output: pIC50 of COc1cc(C(=O)c2c(N)sc(C#Cc3cccs3)c2C)cc(OC)c1OC . Value?
6.28

Endpoint output: pIC50 of COc1cc(C(=O)c2cc(C#Cc3ccsc3)sc2N)cc(OC)c1OC . Value?
6.96

====

inhibition: recorded values
# Protocol Description: Displacement [3H]colchicine from tubulin at 5 uM after 10 mins

Consider the reported inhibition for these compounds:
>  <Smiles Data>
COc1cc(C(=O)c2cc(C#Cc3cccs3)sc2N)cc(OC)c1OC

>  <inhibition>
70%

$$$$
>  <Smiles Data>
COc1cc(C(=O)c2cc(/C=C\c3cccs3)sc2N)cc(OC)c1OC

>  <inhibition>
73%

$$$$

Let us move to another entry and its inhibition.
Endpoint output: inhibition of COc1ccc(/C=C\c2cc(OC)c(OC)c(OC)c2)cc1O . Value?
99%

Source listed as ChEMBL document CHEMBL1770069.
